Listed next: entries and their corresponding microsomal CLint at 1 uM.
Assay: Metabolic stability in human hepatic microsome
Format: in vitro ADME
Details: microsomes, pH 7.4; human hepatic microsome, NADPH(+); read-out: CL NADPH(+)
Starred links: 1 amine or outer side, 2 acyl side, 3 side chain; linkers in the order of their positions; H or OH if unused. Positions of bridges follow the written chain, without caps; N, C: chain ends. Non-standard residues stand in square brackets, D forms with d. Residues, ends and D or L forms follow the SMILES beside them. *: point of attachment. Phe(3-(CH2)4CO) = O=C([C@H](Cc1cccc(CCCCC(=O)[*:3])c1)N[*:1])[*:2]; NMeF = CN[C@@H](Cc1ccccc1)C(=O)O; NMeI = CC[C@H](C)[C@H](NC)C(=O)O; NMeβAla = CN(CCC(=O)[*:2])[*:1]; NMeL = CN[C@@H](CC(C)C)C(=O)O; NMeV = CN[C@H](C(=O)O)C(C)C; Piperidide = C1CCN(*)CC1; Sar = CNCC(=O)O
Report as a plain number; the unit µL/min/mg is understood.

CC[C@H](C)[C@H]1C(=O)N[C@H](C(=O)N2CCCCC2)Cc2cccc(c2)CCCCC(=O)N[C@@H](CC(C)C)C(=O)N2CCC[C@H]2C(=O)N(C)[C@@H](C(C)C)C(=O)N[C@@H](Cc2ccccc2)C(=O)N(C)[C@@H](Cc2ccccc2)C(=O)N(C)[C@@H](CC(C)C)C(=O)N[C@@H](C)C(=O)N1C [DP-872] (LP[NMeV]F[NMeF][NMeL]A[NMeI][Phe(3-(CH2)4CO)]-Piperidide; lactam N-9) :: 397

Read the next record carefully.
Briefly, microsomal CLint at 1 uM measured for CC[C@H](C)[C@@H]1NC(=O)[C@H](CC(C)C)N(C)C(=O)[C@H](C)NC(=O)CN(C)C(=O)[C@H](Cc2ccccc2)NC(=O)[C@H]([C@@H](C)O)NC(=O)[C@H](CC(C)C)N(C)C(=O)CCN(C)C(=O)C[C@@H](C(=O)N2CCCCC2)NC(=O)[C@H](CC(C)C)N(C)C(=O)[C@H](CC(C)C)N(C)C1=O [DP-413] ([NMeβAla][NMeL]TF[Sar]A[NMeL]I[NMeL][NMeL]D-Piperidide; lactam N-11) : 68

====

Assay: PAMPA (parallel artificial membrane permeability assay)
Assay type: in vitro ADME
Conditions: PAMPA; membrane permeation rate (Pe); 50 mM MOPSO buffer pH 6.5 with 5.0% glycocholic acid, 37° C., 18 hours; read-out: iPAMPA Pe
Positions of bridges follow the written chain, without caps; N, C: chain ends. Non-standard residues stand in square brackets, D forms with d. Residues, ends and D or L forms follow the SMILES beside them. *: point of attachment. NMePhe(3-Cl) = CN[C@@H](Cc1cccc(Cl)c1)C(=O)O; NMeF = CN[C@@H](Cc1ccccc1)C(=O)O; NMeL = CN[C@@H](CC(C)C)C(=O)O; NMeA = CN[C@@H](C)C(=O)O; Piperidide = C1CCN(*)CC1; dNMeA = CN[C@H](C)C(=O)O; β3hA = C[C@H](N)CC(=O)O; Sar = CNCC(=O)O
property label: Papp at 18 hours, 50 µM (nm/s)
// note: answer is a bare numeric in nm/s

CC(C)C[C@H]1C(=O)N[C@@H]([C@@H](C)O)C(=O)N(C)[C@@H](C)C(=O)N(C)[C@@H](CC(C)C)C(=O)N[C@@H](C(C)C)C(=O)N[C@H](C(=O)N(C)[C@@H](Cc2ccccc2)C(=O)N(C)[C@@H](Cc2ccccc2)C(=O)N[C@@H](C)C(=O)N2CCCCC2)CC(=O)N(C)[C@H](C)C(=O)N(C)[C@@H](Cc2ccccc2)C(=O)N(C)CC(=O)N1C [DP-214] ([dNMeA][NMeF][Sar][NMeL]T[NMeA][NMeL]VD[NMeF][NMeF]A-Piperidide; lactam N-9) :: 340
CC[C@H](C)[C@@H]1NC(=O)[C@H](CC(C)C)N(C)C(=O)[C@@H](C(C)C)NC(=O)C[C@H](C)NC(=O)[C@H](CC(C)C)N(C)C(=O)[C@H](C)N(C)C(=O)[C@H]([C@@H](C)O)NC(=O)[C@H](Cc2cccc(Cl)c2)N(C)C(=O)[C@H](C)N(C)C1=O [DP-828] (cyclo(I[NMeA][NMePhe(3-Cl)]T[NMeA][NMeL][β3hA][dV][NMeL])) :: 420
CC[C@H](C)[C@H](NC(=O)[C@H](C)N(C)C(=O)[C@@H](NC(=O)[C@H](Cc1ccccc1)N(C)C(=O)[C@H](CC(C)C)N(C)C(=O)[C@@H]1CC(=O)N[C@H](C)C(=O)N[C@@H](C(C)C)C(=O)N(C)[C@@H](Cc2ccccc2)C(=O)N(C)[C@@H](CC(C)C)C(=O)N(C)[C@@H](C)C(=O)N[C@@H]([C@@H](C)O)C(=O)N[C@@H](Cc2ccccc2)C(=O)N1)C(C)C)C(=O)N1CCCCC1 [DP-570] ([dA]V[NMeF][NMeL][NMeA]TFD[NMeL][NMeF]V[NMeA]I-Piperidide; lactam N-8) :: 21

The recorded Papp at 18 hours, 50 µM for entry CC(C)C[C@H]1C(=O)N[C@H](C(=O)N(C)[C@@H](Cc2ccccc2)C(=O)N[C@@H](C)C(=O)N2CCCCC2)CC(=O)N(C)[C@H](C)C(=O)N(C)[C@@H](CC(C)C)C(=O)N(C)[C@@H](C)C(=O)N[C@@H]([C@@H](C)O)C(=O)N[C@@H](Cc2ccccc2)C(=O)N(C)[C@@H](Cc2ccccc2)C(=O)N[C@@H](C(C)C)C(=O)N1C [DP-381] ([dNMeA][NMeL][NMeA]TF[NMeF]V[NMeL]D[NMeF]A-Piperidide; lactam N-9) equals 450

====

Assay: Metabolic stability in human hepatic microsome
Assay type: in vitro ADME
Details: microsomes, pH 7.4; human hepatic microsome, NADPH(+); read-out: CL NADPH(+)
Starred links: 1 amine or outer side, 2 acyl side, 3 side chain; linkers in the order of their positions; H or OH if unused. Positions of bridges follow the written chain, without caps; N, C: chain ends. Non-standard residues stand in square brackets, D forms with d. Residues, ends and D or L forms follow the SMILES beside them. *: point of attachment. Phe(3-(CH2)4CO) = O=C([C@H](Cc1cccc(CCCCC(=O)[*:3])c1)N[*:1])[*:2]; NMeF = CN[C@@H](Cc1ccccc1)C(=O)O; NMeI = CC[C@H](C)[C@H](NC)C(=O)O; NMeL = CN[C@@H](CC(C)C)C(=O)O; NMeV = CN[C@H](C(=O)O)C(C)C; Piperidide = C1CCN(*)CC1; Sar = CNCC(=O)O; tBu = CC(C)(C)*
property label: microsomal CLint at 1 uM

The recorded microsomal CLint at 1 uM for entry CC[C@H](C)[C@H]1C(=O)N[C@@H](COC(C)(C)C)C(=O)N(C)[C@@H](Cc2ccccc2)C(=O)N(C)[C@@H](C(C)C)C(=O)N[C@H](C(=O)N2CCCCC2)Cc2cccc(c2)CCCCC(=O)N(C)[C@@H](Cc2ccccc2)C(=O)N[C@@H](CC(C)C)C(=O)N(C)[C@@H](CC(C)C)C(=O)N[C@@H]([C@@H](C)O)C(=O)N(C)CC(=O)N1C [DP-853] ([NMeF]L[NMeL]T[Sar][NMeI]S(tBu)[NMeF][NMeV][Phe(3-(CH2)4CO)]-Piperidide; lactam N-10) equals 120 µL/min/mg

====

Assay: Metabolic stability in human hepatic microsome
Type: in vitro ADME
Conditions: microsomes, pH 7.4; human hepatic microsome, NADPH(+); read-out: CL NADPH(+)
Positions of bridges follow the written chain, without caps; N, C: chain ends. Non-standard residues stand in square brackets, D forms with d. Residues, ends and D or L forms follow the SMILES beside them. *: point of attachment. NMeF = CN[C@@H](Cc1ccccc1)C(=O)O; NMeL = CN[C@@H](CC(C)C)C(=O)O; NMeA = CN[C@@H](C)C(=O)O; Piperidide = C1CCN(*)CC1; dNMeA = CN[C@H](C)C(=O)O; Sar = CNCC(=O)O
property label: microsomal CLint at 1 uM

microsomal CLint at 1 uM recorded for this compound, CC(C)C[C@H]1C(=O)N[C@@H]([C@@H](C)O)C(=O)N(C)[C@@H](C)C(=O)N(C)[C@@H](CC(C)C)C(=O)N[C@@H](C(C)C)C(=O)N[C@H](C(=O)N(C)[C@@H](Cc2ccccc2)C(=O)N(C)[C@@H](Cc2ccccc2)C(=O)N[C@@H](C)C(=O)N2CCCCC2)CC(=O)N(C)[C@H](C)C(=O)N(C)[C@@H](Cc2ccccc2)C(=O)N(C)CC(=O)N1C [DP-214] ([dNMeA][NMeF][Sar][NMeL]T[NMeA][NMeL]VD[NMeF][NMeF]A-Piperidide; lactam N-9) , is 33 µL/min/mg
